FYI, the data here is from patent US12246076B2.

Quick reference for pKi among some compounds
measurement target: GRPR (Homo sapiens)
Construct: endogenous in cells
assay explanation: In vitro competition binding assay, displacement of [^125I-Tyr^4]bombesin on GRPR-expressing PC-3 cells
test parameters: n = 2-3, read-out: Binding affinities Ki Mean
Interpret pKi as the negative base-10 log of the concentration measured in mol/L.

Example entries begin here.
# given smiles, pKi
records = [
    ("CC(C)C[C@H](NC(=O)[C@H](Cc1c[nH]cn1)NC(=O)CNC(=O)[C@@H](NC(=O)[C@H](C)NC(=O)[C@H](Cc1c[nH]c2ccc(F)cc12)NC(=O)[C@H](CCC(N)=O)NC(=O)[C@H](N)Cc1ccccc1)C(C)C)C(=O)N1CSC[C@H]1C(N)=O", 7.75),
    ("Cc1cccc2c(C[C@H](NC(=O)[C@H](CCC(N)=O)NC(=O)[C@H](N)Cc3ccccc3)C(=O)N[C@@H](C)C(=O)N[C@H](C(=O)NCC(=O)N[C@@H](Cc3c[nH]cn3)C(=O)N[C@@H](CC(C)C)C(=O)N3CSC[C@H]3C(N)=O)C(C)C)c[nH]c12", 7.87),
]

What the record says about `CC(C)C[C@H](NC(=O)[C@H](Cc1cnc[nH]1)NC(=O)CNC(=O)[C@@H](NC(=O)[C@H](C)NC(=O)[C@H](Cc1c[nH]c2ccccc12)NC(=O)[C@H](CCC(N)=O)NC(=O)[C@H](N)Cc1ccccc1)C(C)(C)C)C(=O)N1CSC[C@H]1C(N)=O` : pKi is 8.45

What the record says about `CC(C)C[C@H](NC(=O)[C@H](Cc1c[nH]cn1)NC(=O)CNC(=O)[C@@H](NC(=O)[C@H](C)NC(=O)[C@H](Cc1c[nH]c2cccc(F)c12)NC(=O)[C@H](CCC(N)=O)NC(=O)[C@H](N)Cc1ccccc1)C(C)C)C(=O)N1CSC[C@H]1C(N)=O` : pKi is 7.36

----------
Quick reference for Ki among some molecules
measurement target: GRPR (Homo sapiens, UniProt P30550)
Construct: endogenous in cells
Sequence (P30550 whole entry): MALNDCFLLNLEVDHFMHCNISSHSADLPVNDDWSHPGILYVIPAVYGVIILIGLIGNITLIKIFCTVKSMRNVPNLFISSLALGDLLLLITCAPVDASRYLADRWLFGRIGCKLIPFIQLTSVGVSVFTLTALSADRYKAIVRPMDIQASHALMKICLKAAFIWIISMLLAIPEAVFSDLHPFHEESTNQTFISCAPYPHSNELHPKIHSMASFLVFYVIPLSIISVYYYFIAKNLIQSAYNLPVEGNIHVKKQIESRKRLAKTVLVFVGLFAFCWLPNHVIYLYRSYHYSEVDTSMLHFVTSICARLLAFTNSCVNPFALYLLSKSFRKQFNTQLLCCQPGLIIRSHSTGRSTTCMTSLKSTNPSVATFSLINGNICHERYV
assay explanation: In vitro competition binding assay, displacement of [^125I-Tyr^4]bombesin on GRPR-expressing PC-3 cells
test parameters: n = 2-3, read-out: Binding affinities Ki Mean
Peptide text beside a SMILES is read from it.
Reply with just the number (in nM).

# molecule, Ki [nM]
records = [
    ("CC(C)C[C@H](NC(=O)[C@H](Cc1c[nH]cn1)NC(=O)CNC(=O)[C@@H](NC(=O)[C@H](C)NC(=O)[C@H](Cc1csc2ccccc12)NC(=O)[C@H](CCC(N)=O)NC(=O)[C@H](N)Cc1ccccc1)C(C)C)C(=O)N1CSC[C@H]1C(N)=O [LW02015] (HELM PEPTIDE1{[dF].Q.[O=C([C@H](Cc1csc2ccccc12)N[*:1])[*:2]].A.V.G.H.L.[O=C([C@@H]1CSCN1[*:1])[*:2]].[am]}$$$$V2.0)", 53.1),
]

What the record says about `CC(C)C[C@H](NC(=O)[C@H](Cc1cnc[nH]1)NC(=O)CNC(=O)[C@@H](NC(=O)[C@H](C)NC(=O)[C@H](Cc1c[nH]c2ccccc12)NC(=O)[C@H](CCC(N)=O)NC(=O)[C@H](N)Cc1ccccc1)C(C)C)C(=O)N1CSC[C@H]1C(N)=O` : Ki is 8.77

What the record says about `Cc1cccc2[nH]cc(C[C@H](NC(=O)[C@H](CCC(N)=O)NC(=O)[C@H](N)Cc3ccccc3)C(=O)N[C@@H](C)C(=O)N[C@H](C(=O)NCC(=O)N[C@@H](Cc3c[nH]cn3)C(=O)N[C@@H](CC(C)C)C(=O)N3CSC[C@H]3C(N)=O)C(C)C)c12` : Ki is 25.9

What the record says about `Cc1[nH]c2ccccc2c1C[C@H](NC(=O)[C@H](CCC(N)=O)NC(=O)[C@H](N)Cc1ccccc1)C(=O)N[C@@H](C)C(=O)N[C@H](C(=O)NCC(=O)N[C@@H](Cc1c[nH]cn1)C(=O)N[C@@H](CC(C)C)C(=O)N1CSC[C@H]1C(N)=O)C(C)C` : Ki is 11.5

----------
assay explanation: Ex vivo biodistribution in PC-3 tumor-bearing mice
test parameters: male, NRG, mouse, muscle, iv, total radioactivity, Biodistribution Muscle Mean, 1 h post-injection, mice bearing PC-3 tumor xenografts, n = 4
Quick reference for tissue uptake at 1 h among some compounds
Reply with just the number (in %ID/g).

Example entries begin here.
# compound, result units, tissue uptake at 1 h
measured = [
    ("CC(C)C[C@H](NC(=O)[C@H](Cc1c[nH]cn1)NC(=O)CNC(=O)[C@@H](NC(=O)[C@H](C)NC(=O)[C@H](Cc1c[nH]c2ccccc12)NC(=O)[C@H](CCC(N)=O)NC(=O)[C@@H](Cc1ccc2ccccc2c1)NC(=O)CN1CCC(NC(=O)CN2CCN(CC(=O)O)CCN(CC(=O)O)CCN(CC(=O)O)CC2)CC1)C(C)C)C(=O)N1CSC[C@H]1C(N)=O [^68Ga-LW01029, metal not drawn]", "%ID/g", 0.23),
    ("CC(C)C[C@@H](CN1CCC[C@H]1C(N)=O)NC(=O)[C@H](Cc1c[nH]cn1)NC(=O)CN(C)C(=O)[C@@H](NC(=O)[C@H](C)NC(=O)[C@H](Cc1c[nH]c2ccccc12)NC(=O)[C@H](CCC(N)=O)NC(=O)[C@@H](Cc1ccccc1)NC(=O)CN1CCC(NC(=O)CN2CCN(CC(=O)O)CCN(CC(=O)O)CCN(CC(=O)O)CC2)CC1)C(C)C [^68Ga-LW02045, metal not drawn]", "%ID/g", 0.1),
    ("CC(C)C[C@@H](CN1CSC[C@H]1C(N)=O)NC(=O)[C@H](Cc1c[nH]cn1)NC(=O)CNC(=O)[C@@H](NC(=O)[C@H](C)NC(=O)[C@H](Cc1c[nH]c2ccccc12)NC(=O)[C@H](CCC(N)=O)NC(=O)[C@@H](Cc1ccc2ccccc2c1)NC(=O)CN1CCC(NC(=O)CN2CCN(CC(=O)O)CCN(CC(=O)O)CCN(CC(=O)O)CC2)CC1)C(C)C [^68Ga-LW01059, metal not drawn]", "%ID/g", 0.28),
]

What the record says about CC(C)C[C@H](NC(=O)[C@H](Cc1c[nH]cn1)NC(=O)CNC(=O)[C@@H](NC(=O)[C@H](C)NC(=O)[C@H](Cc1c[nH]c2ccccc12)NC(=O)[C@H](CCC(N)=O)NC(=O)[C@@H](Cc1ccccc1)NC(=O)CN1CCC(NC(=O)CN2CCN(CC(=O)O)CCN(CC(=O)O)CCN(CC(=O)O)CC2)CC1)C(C)C)C(=O)N1CSC[C@H]1C(N)=O [^68Ga-LW01025, metal not drawn] : tissue uptake at 1 h is 0.13
